experimental.details: Cytotoxicity against human Caco2 cells after 3 to 4 days
Type: cell-based
study.conditions: Caco-2 cells
Hi there, I'd appreciate the recorded CC50 for every entry that follows.

Which CC50 value belongs to CN[C@@H]1[C@H](O[C@@H]2OC[C@@H](O)[C@H](O)[C@H]2O)[C@@H](O)[C@H](O[C@H]2c3cc(C)c(C(=O)N[C@H](C)C(=O)O)c(O)c3-c3c(cc4c(c3O)C(=O)c3cc(OC)cc(O)c3C4=O)[C@@H]2O)O[C@@H]1C [PRADIMICIN A] ?
> 50 µM

Then this compound: CN[C@@H]1[C@H](O[C@@H]2O[C@H](CO)[C@@H](O)[C@H](OS(=O)(=O)O)[C@H]2O)[C@@H](O)[C@H](O[C@H]2c3cc(C)c(C(=O)N[C@H](C)C(=O)O)c(O)c3-c3c(cc4c(c3O)C(=O)c3cc(OC)cc(O)c3C4=O)[C@@H]2O)O[C@@H]1C [PRADIMICIN S]
> 230 µM
